FYI, the data here is from PubChem BioAssay (Tox21).

biological target: 5-hydroxytryptamine receptor 2A (Homo sapiens) (UniProt P28223); assay: 5-hydroxytryptamine receptor 2A (HTR2A) small molecule antagonists, cell-based qHTS assay (AID 1963586); conditions: HTR2A-CHO cells, DOI-induced calcium flux, fluorescence; series mostly up to 61.5 µM; also: nearly all actives have a fitted effect of over 45% in size
Sequence (P28223 whole entry, looked up): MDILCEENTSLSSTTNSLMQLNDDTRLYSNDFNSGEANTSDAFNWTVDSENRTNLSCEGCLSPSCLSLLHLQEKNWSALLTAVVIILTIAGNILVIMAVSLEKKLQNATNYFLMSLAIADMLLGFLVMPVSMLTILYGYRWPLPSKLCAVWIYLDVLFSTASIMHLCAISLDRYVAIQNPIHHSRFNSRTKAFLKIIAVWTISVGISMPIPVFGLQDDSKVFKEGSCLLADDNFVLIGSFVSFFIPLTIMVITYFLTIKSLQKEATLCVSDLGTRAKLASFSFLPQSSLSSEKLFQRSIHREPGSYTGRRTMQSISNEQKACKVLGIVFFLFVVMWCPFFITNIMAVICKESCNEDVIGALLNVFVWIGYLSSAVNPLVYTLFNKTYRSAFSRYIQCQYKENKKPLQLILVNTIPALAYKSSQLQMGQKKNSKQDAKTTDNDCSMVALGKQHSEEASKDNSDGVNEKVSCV
Records with an inconclusive call do not appear. The source made the active and inactive calls. Calls follow the shape of the full dose curve.
readout: activity, negative = inhibition

Examples from the recorded data:
{"cpd smiles": "O=C1CCCCC1", "assay system": "5-hydroxytryptamine receptor 2A (Homo sapiens) (UniProt P28223)", "activity, negative = inhibition": "inactive"}
{"cpd smiles": "Nc1cc([N+](=O)[O-])ccc1O", "assay system": "5-hydroxytryptamine receptor 2A (Homo sapiens) (UniProt P28223)", "activity, negative = inhibition": "inactive"}
{"cpd smiles": "[O]=[Zr]", "assay system": "5-hydroxytryptamine receptor 2A (Homo sapiens) (UniProt P28223)", "activity, negative = inhibition": "inactive"}
{"cpd smiles": "O=C(O)c1ccc(OCCCOc2ccc(C(=O)O)cc2)cc1", "assay system": "5-hydroxytryptamine receptor 2A (Homo sapiens) (UniProt P28223)", "activity, negative = inhibition": "inactive"}
{"cpd smiles": "COc1cc(C=O)ccc1OC(=O)C(C)C", "assay system": "5-hydroxytryptamine receptor 2A (Homo sapiens) (UniProt P28223)", "activity, negative = inhibition": "inactive"}
{"cpd smiles": "NC(=O)c1ccc([N+](=O)[O-])cc1", "assay system": "5-hydroxytryptamine receptor 2A (Homo sapiens) (UniProt P28223)", "activity, negative = inhibition": "inactive"}
{"cpd smiles": "CC(=O)OCc1ccco1", "assay system": "5-hydroxytryptamine receptor 2A (Homo sapiens) (UniProt P28223)", "activity, negative = inhibition": "inactive"}
{"cpd smiles": "CC(=O)Oc1cccc(O)c1", "assay system": "5-hydroxytryptamine receptor 2A (Homo sapiens) (UniProt P28223)", "activity, negative = inhibition": "inactive"}

Okay, next one:
Task item: What value of activity, negative = inhibition has been recorded for this entry: `CCc1cnc(C(=O)O)c(C(=O)O)c1`
Reply: inactive

###

assay: Nuclear factor erythroid 2-related factor 2/antioxidant responsive element (Nrf2/ARE) small molecule agonists: qHTS cell viability counter screen in human keratinocytes (AID 1919968); settings: KeratinoSens HaCaT ARE cells viability, CellTiter-Fluor, 24 h; series mostly up to 92.4 µM; also: nearly all actives have a fitted effect of over 55% in size
Records with an inconclusive call do not appear. The source made the active and inactive calls. Calls follow the shape of the dose curve; as a rule, active = well fitted cell-killing curve with a large enough effect in the repeat runs; inconclusive = weak or mixed curves, or effect the other way; inactive = flat fitted curve, though single readings scatter.
readout: outcome

Examples from the recorded data:
{"compound": "COC(=O)c1cc(S(N)(=O)=O)ccc1OC", "outcome": "inactive"}
{"compound": "COc1cc(/C=C/C(=O)O[C@H]2CC[C@]34C[C@]35CC[C@]3(C)[C@@H]([C@H](C)CCC=C(C)C)CC[C@@]3(C)[C@@H]5CC[C@H]4C2(C)C)ccc1O", "outcome": "inactive"}
{"compound": "O=C(O)c1ccc(OCCCOc2ccc(C(=O)O)cc2)cc1", "outcome": "inactive"}
{"compound": "CC(C)C(=O)Nc1cccc(C2CN3CCSC3=N2)c1 (configuration not stated)", "outcome": "inactive"}

Task item: What value of outcome has been recorded for this entry: `C=CC(=O)O[C@H]1C[C@@H]2CC[C@@]1(C)C2(C)C`
Reply: inactive

Task item: What value of outcome has been recorded for this entry: `Cc1onc(-c2ccccc2)c1C(=O)Cl`
Reply: inactive

Task item: What value of outcome has been recorded for this entry: `COc1nc(C)nc(NC(=O)NS(=O)(=O)c2ccccc2OCCCl)n1`
Reply: inactive

###

experiment: p53 small molecule agonists, cell-based qHTS assay: qHTS cell viability counter screen (AID 1963581); settings: p53RE-bla HCT-116 viability, ATP luminescence, 16 h; series mostly up to 66 µM; also: nearly all actives have a fitted effect of over 45% in size
Inconclusive results are not listed. Active and inactive are the calls of the source. Calls come from the whole dose curve.

{"compound": "COC(CC(C)CCCC(C)(C)O)OC (stereo not drawn)", "activity change, negative = cytotoxicity": "inactive"}
{"compound": "CC(C)N=C(N)/N=C(\\N)Nc1ccc(Cl)cc1", "activity change, negative = cytotoxicity": "inactive"}
{"compound": "CCCCOC(O)CC (stereo not drawn)", "activity change, negative = cytotoxicity": "inactive"}

###

assay: Nuclear factor erythroid 2-related factor 2/antioxidant responsive element (Nrf2/ARE) small molecule agonists: qHTS cell viability counter screen in human keratinocytes (AID 1919968); settings: KeratinoSens HaCaT ARE cells viability, CellTiter-Fluor, 24 h; series mostly up to 92.4 µM; also: nearly all actives have a fitted effect of over 55% in size
Results filed as inconclusive are left out. Activity calls are given as the source filed them. Calls come from the whole dose curve; as a rule, active = well fitted cell-killing curve with a large enough effect in the repeat runs; inconclusive = weak or mixed curves, or effect the other way; inactive = flat fitted curve, though single readings scatter.
The categories you may choose from are active, inactive

{"compound": "CC(C)C(=O)O", "label class": "inactive"}

Okay, now this compound:
Task item: Query: recorded result category for `CCOC(=O)CN` in this test
Reply: inactive

###

Assay: Nuclear factor erythroid 2-related factor 2/antioxidant responsive element (Nrf2/ARE) small molecule agonists: qHTS cell viability counter screen in human keratinocytes (AID 1919968); also: nearly all actives have a fitted effect of over 55% in size
Conditions: KeratinoSens HaCaT ARE cells viability, CellTiter-Fluor, 24 h; series mostly up to 92.4 µM
From the text: U.S. Tox21 Program National Center for Advancing Translational Sciences [NCATS] Division of Preclinical Innovation [DPI] U.S. Environmental Protection Agency [EPA] National Institutes of Environmental Health Sciences [NIEHS] National Toxicology Program [NTP] U.S. Food and Drug Administration [FDA] […] The activation of the report gene under culture conditions can be detected by ONE-Glo Luciferase Assay System (Promega, Madison, WI). […]
Results filed as inconclusive are left out. Activity calls are given as the source filed them. Calls follow the shape of the dose curve; as a rule, active = well fitted cell-killing curve with a large enough effect in the repeat runs; inconclusive = weak or mixed curves, or effect the other way; inactive = flat fitted curve, though single readings scatter.
The categories you may choose from are 1 (yes) (active), 0 (no) (inactive)

Here are 5 molecules together with their reported answers.
{"molecule": "CC(=O)CC(=O)Nc1ccc2[nH]c(=O)[nH]c2c1", "label class": "0 (no)"}
{"molecule": "O=C(O)c1cc2ccccc2cc1O", "label class": "0 (no)"}
{"molecule": "CC(C)C(=O)c1ccccc1", "label class": "0 (no)"}
{"molecule": "NS(=O)(=O)c1cc2c(cc1C(F)(F)F)NC(Cc1ccccc1)NS2(=O)=O (stereo not drawn)", "label class": "0 (no)"}
{"molecule": "N[C@H]1C(O)O[C@H](CO)[C@@H](O)[C@@H]1O (stereo partly drawn)", "label class": "0 (no)"}

Task item: Query: recorded result category for `Cc1ccc(C=O)cc1` in this test
Reply: 0 (no)

Task item: Query: recorded result category for CC(=O)C(C)O (stereo not drawn) in this test
Reply: 0 (no)

Task item: Query: recorded result category for `CCCc1c2oc(C(=O)O)cc(=O)c2cc2c(=O)cc(C(=O)O)n(CC)c12` in this test
Reply: 0 (no)

Task item: Query: recorded result category for `C/C(=N\O)[C@@H](C)NCC(C)(C)CN[C@H](C)/C(C)=N/O` in this test
Reply: 0 (no)

Task item: Query: recorded result category for `O=C1Nc2ccccc2C1(c1ccc(O)cc1)c1ccc(O)cc1` in this test
Reply: 0 (no)

Task item: Query: recorded result category for `Cc1cc(C)cc(N)c1` in this test
Reply: 0 (no)

Task item: Query: recorded result category for `O=C(O)[C@@H]1[C@H]2C[C@H]3c4[nH]c5ccccc5c4CCN3C[C@@H]2CC[C@@H]1O` in this test
Reply: 0 (no)

Task item: Query: recorded result category for `Cc1ccc(C)cc1` in this test
Reply: 0 (no)

Task item: Query: recorded result category for `COCCCOc1cc(C[C@@H](C[C@H](N)[C@@H](O)C[C@H](C(=O)NCC(C)(C)C(N)=O)C(C)C)C(C)C)ccc1OC` in this test
Reply: 0 (no)

Task item: Query: recorded result category for CC(C)(C)C(=O)C(Oc1ccc(Cl)cc1)n1ccnc1 (stereo not drawn) in this test
Reply: 0 (no)

Task item: Query: recorded result category for `C=C1C[C@]23C[C@@]1(O)CC[C@H]2[C@@]12C=C[C@H](O)[C@@](C)(C(=O)O1)[C@H]2[C@@H]3C(=O)O` in this test
Reply: 0 (no)

Task item: Query: recorded result category for `CCCCCCCCCCCCCCO` in this test
Reply: 0 (no)

Task item: Query: recorded result category for `C/C=C/C(=O)O` in this test
Reply: 0 (no)

Task item: Query: recorded result category for `NCCNCCO` in this test
Reply: 0 (no)

Task item: Query: recorded result category for `O=C1CCC(=O)N1` in this test
Reply: 0 (no)

Task item: Query: recorded result category for O=C(Nc1ccc([N+](=O)[O-])cc1)Nc1ccc([N+](=O)[O-])cc1 (tested in a mixture with another compound) in this test
Reply: 0 (no)

Task item: Query: recorded result category for `C=C(C)C(=O)OCCCCCCCCCCCCC` in this test
Reply: 0 (no)

Task item: Query: recorded result category for `OCC(CO)N[C@H]1C[C@](O)(CO)[C@@H](O)[C@H](O)[C@H]1O` in this test
Reply: 0 (no)

Task item: Query: recorded result category for `O=C(O)[C@@H](O)[C@H](O)[C@H](O)[C@@H](O)C(=O)O` in this test
Reply: 0 (no)

Task item: Query: recorded result category for `OCCOc1ccc(OCCO)cc1` in this test
Reply: 0 (no)

Task item: Query: recorded result category for `Clc1ccccc1-c1nc(-c2ccncc2)no1` in this test
Reply: 0 (no)
